- System: mRNA expression in cardiovascular tissues
- PROCEDURE SUMMARY: Affymetrix GeneChip mRNA expression profiling of monkey tissues (iliac vein, pulmonary vein, aorta, carotid artery, heart) after two-week oral-gavage treatment
- CONDITIONS USED: iliac vein; group average (Vioxx without A60055)
Reported values of FCGR2A (203561_at) mRNA expression, Avg fold changes vs control for individual entries
EXPERIMENTAL ENDPOINT: FCGR2A (203561_at) mRNA expression, Avg fold changes vs control (fold)

1) O=C(O)Cc1ccccc1Nc1c(Cl)cccc1Cl [Voltaren]    1.4
2) Cc1ccc(Nc2c(F)cccc2Cl)c(CC(=O)O)c1 [COX189, Lumiracoxib]    0.8
3) Cc1ccc(-c2cc(C(F)(F)F)nn2-c2ccc(S(N)(=O)=O)cc2)cc1 [Celebrex]    1.4
4) CS(=O)(=O)c1ccc(C2=C(c3ccccc3)C(=O)OC2)cc1 [Vioxx®, rofecoxib]    1.1

---

- Test system: mRNA expression in cardiovascular tissues
- PROCEDURE SUMMARY: Affymetrix GeneChip mRNA expression profiling of monkey tissues (iliac vein, pulmonary vein, aorta, carotid artery, heart) after two-week oral-gavage treatment
- CONDITIONS USED: iliac vein; group average (Vioxx without A60055)
EXPERIMENTAL ENDPOINT: CYBB (203922_s_at) mRNA expression, Avg fold changes vs control (fold)

1) CS(=O)(=O)c1ccc(C2=C(c3ccccc3)C(=O)OC2)cc1 [Vioxx®, rofecoxib]    1.2
2) O=C(O)Cc1ccccc1Nc1c(Cl)cccc1Cl [Voltaren]    1.1
3) Cc1ccc(Nc2c(F)cccc2Cl)c(CC(=O)O)c1 [COX189, Lumiracoxib]    0.9
4) Cc1ccc(-c2cc(C(F)(F)F)nn2-c2ccc(S(N)(=O)=O)cc2)cc1 [Celebrex]    1.7

---

- System: mRNA expression in cardiovascular tissues
- PROCEDURE SUMMARY: Affymetrix GeneChip mRNA expression profiling of monkey tissues (iliac vein, pulmonary vein, aorta, carotid artery, heart) after two-week oral-gavage treatment
- CONDITIONS USED: iliac vein; group average (Vioxx without A60055)
EXPERIMENTAL ENDPOINT: BCL6 (215990_s_at) mRNA expression, Avg fold changes vs control (fold)

1) Cc1ccc(Nc2c(F)cccc2Cl)c(CC(=O)O)c1    1.4
2) Cc1ccc(-c2cc(C(F)(F)F)nn2-c2ccc(S(N)(=O)=O)cc2)cc1    0.9
3) O=C(O)Cc1ccccc1Nc1c(Cl)cccc1Cl    1.0
4) CS(=O)(=O)c1ccc(C2=C(c3ccccc3)C(=O)OC2)cc1    1.0

---

- Test system: mRNA expression in cardiovascular tissues
- PROCEDURE SUMMARY: Affymetrix GeneChip mRNA expression profiling of monkey tissues (iliac vein, pulmonary vein, aorta, carotid artery, heart) after two-week oral-gavage treatment
- CONDITIONS USED: iliac vein; group average (Vioxx without A60055)
// GP6 (220336_s_at) mRNA expression, Avg fold changes vs control lookup, one value per entry
EXPERIMENTAL ENDPOINT: GP6 (220336_s_at) mRNA expression, Avg fold changes vs control (fold)

1. O=C(O)Cc1ccccc1Nc1c(Cl)cccc1Cl [Voltaren]    1.0
2. Cc1ccc(-c2cc(C(F)(F)F)nn2-c2ccc(S(N)(=O)=O)cc2)cc1 [Celebrex]    1.1
3. CS(=O)(=O)c1ccc(C2=C(c3ccccc3)C(=O)OC2)cc1 [Vioxx®, rofecoxib]    1.2
4. Cc1ccc(Nc2c(F)cccc2Cl)c(CC(=O)O)c1 [COX189, Lumiracoxib]    1.2
